Numbers sourced from patent US20190271705A1.

- target or system: TRAF7-pY275mod
- protocol: fluorescence polarization
measure: pKd
Kindly note that pKd refers to -log10 of the concentration in mol/L and answer with the value alone.

T8V (designed binder) MKIEEHHHHHHSSGRENLYFQGGAAQPAAPVDSIQAEEWYFGKLGRKDAERQLLSFGNPRGTFLIRESETVKGAYSLSIRDWDDMKGDHVKHYKIRKLDNGGYYITTRAQFETLQQLVQHYSERAAGLSSRLVVPSHKGAAA ... 5.24

I'd like to know its pKd. The binder in question is K15L (designed binder) MKIEEHHHHHHSSGRENLYFQGGAAQPAAPVDSIQAEEWYFGKLGRKDAERQLLSFGNPRGTFLIRESETTKGAYSLSIRDWDDMKGDHVKHYLIRKLDNGGYYITTRAQFETLQQLVQHYSERAAGLSSRLVVPSHKGAAA
5.66
